# cleaved RNA product abundance listing for each entry below
# Test system: Bacillus subtilis
# Test protocol: cleaved RNA product abundance (RNA/gDNA barcode ratio) relative to median wild-type variant (ratio to wild type); higher = more accumulation of the downstream cleavage product
# Condition description: experiment (reporter, strain, medium): exp 2b: truncated aprE reporter, strain BJT200; cleavage site: cggR-gapA (positions -7 to +36 mutated)
Keep it simple and answer with nothing but the number.

Previously resolved entries follow.
ACAGACGAAGGAGCCGCAAAAAAGTTATTAAGGGATGAATAATCCCTCAATATAAATGTCTCTCACTTATTTAAA | 0.243
ACAGACGAAGGAGCCGCAAAGAAGTTATTAAGGTAGGAATAATCCCTCAATATAAATATCTCTCACTTATTTAAA | 0.145
ACAGACGAAGGAGCCGCAAAGAATTTATTAAGGGATAAATAATCCCTCAATATAAATATCTCTCACTTATTTAAA | 0.767
ACAGACGAAGGAGCCGCAAAGAAGTAATTAAGGAATGAATAATCCCTCAATATAAATATCTCTCACTTATTTAAA | 0.0931
ACAGACGAAGGAGCCGCAAAGAAGTTATTAAGGGTAGAATAATCCCTCAATATAAATATCTCTCACTTATTTAAA | 0.172

Read the next record carefully.
Find cleaved RNA product abundance (Bacillus subtilis) for the entry ACAGACGAAGGAGCCGCAAAGAAGTTATTAAGGCATGAATAATCCCTCAAGATAAATATCTCTCACTTATTTAAA
0.0843

---

# Tested on: Bacillus subtilis
# Test protocol: cleaved RNA product abundance (RNA/gDNA barcode ratio) relative to median wild-type variant (ratio to wild type); higher = more accumulation of the downstream cleavage product
# Condition description: experiment (reporter, strain, medium): exp 4a: truncated aprE reporter, strain BJT201 with 2% xylose (RNase J1 expressed); cleavage site: cggR-gapA (positions -7 to +36 mutated)
Observed property: cleaved RNA product abundance
Could you respond with only the numeric value?

# count of solved cases: 5
ACAGACGAAGGAGCCGCAAAGAAGTTATTAAGGCATGAATAATCCCTCAACATAAATATCTCTCACTTATTTAAA | 0.112
ACAGACGAAGGAGCCGCAAAGAAGTTATTAAGTGATGAAAAATCCCTCAATATAAATATCTCTCACTTATTTAAA | 0.0967
ACAGACGAAGGAGCCGCAAAGGAGTTATTAAGGGATGACTAATCCCTCAATATAAATATCTCTCACTTATTTAAA | 0.596
ACAGACGAAGGAGCCGCAATGAAGTTATTAAGGTATGAATAATCCCTCAATATAAATATCTCTCACTTATTTAAA | 0.146
ACAGACGAAGGAGCCGCAAAGAAGTTATTAATGGATGAATAATCCCTCAATATAAATATCTCTCACTTATTTAAA | 0.155

What value of cleaved RNA product abundance has been recorded for this entry: ACAGACGAAGGAGCCGCAAAGAAGTTATTAAGGGATAAATATTCCCTCAATATAAATATCTCTCACTTATTTAAA
1.01

Continue with ACAGACGAAGGAGCCGCAAAGAAGTTATTAAGGGATGCATAATCCCTCAATAAAAATATCTCTCACTTATTTAAA
0.139

Entry ACAGACGAAGGAGCCGCAAAGAAGTTATTAAGGGATTAATAACCCCTCAATATAAATATCTCTCACTTATTTAAA please
0.72

Another sequence: ACAGACGAAGGAGCCGCAAAGAAGTTATTAAGGGATGAATAAACCCTCCATATAAATATCTCTCACTTATTTAAA
0.162
